# measurement notes: gradient 5% acetonitrile 3 min, to 50% in 2 min, to 85% in 15 min, held 3 min, 100 µL/min
# stated conditions: column: Zorbax Extend-C18 2.1 x 50 mm; eluents: water / acetonitrile, 0.1% formic acid
observable: RP-LC retention time (s)

compound=O=C(c1ccccn1)N1CCCn2nc(-c3ccc(Cl)cc3)cc2C1 observable="RP-LC retention time" measured=817
compound=Cc1cc(C)c(CNC(=O)c2ccc3c(c2)CC(=O)N3C)c(C)c1 observable="RP-LC retention time" measured=830
compound=Cc1ccc(-c2noc(-c3cccc(S(=O)(=O)Nc4ccc5c(c4)OCCO5)c3)n2)cc1 observable="RP-LC retention time" measured=1140
compound=Cc1ccc(C(=O)N2CCCCCCNC(=O)[C@@H]3CCCC[C@@H]32)s1 observable="RP-LC retention time" measured=813
compound=COc1ccc(C2CC(=O)N(c3ccc(F)c(Cl)c3)C(=O)C2)cc1OC observable="RP-LC retention time" measured=915
compound="Cc1ccc(N(C)C(=O)C2CCCN(S(=O)(=O)c3cc(-c4noc(C)n4)cs3)C2)cc1 (stereo unspecified)" observable="RP-LC retention time" measured=992
compound="O=C(NCCc1cccc(F)c1)C1CC(=O)N(c2n[nH]c3cccc(F)c23)C1 (stereo unspecified)" observable="RP-LC retention time" measured=720
compound=O=C1CC[C@@H](C(=O)N2CSC[C@H]2C(=O)O)N1 observable="RP-LC retention time" measured=562
compound=CCc1nc(N2CCNCC2)c(C#N)c2c1COC(C)(C)C2 observable="RP-LC retention time" measured=627
compound=CCSc1nnc(NC(=O)c2nn(-c3ccc(F)cc3)cc2OC)s1 observable="RP-LC retention time" measured=881
compound=COC(=O)c1ccccc1NC(=O)CCc1c(-c2ccc(Cl)cc2)nc2ccccn12 observable="RP-LC retention time" measured=772
compound=Cc1cc(N(CCO)Cc2ccccc2)n2nc(-c3ccccc3C)nc2n1 observable="RP-LC retention time" measured=786
compound=O=C(Nc1cnc(N2CCN(CCOc3ccc(Cl)cc3)CC2)c(C(=O)O)c1)c1cccs1 observable="RP-LC retention time" measured=683
compound="CC(C)c1nnc(C2CN(C)CC23CCN(Cc2cc(Cl)ccc2F)CC3)o1 (stereo unspecified)" observable="RP-LC retention time" measured=563
compound=Cc1ccc(NS(=O)(=O)c2cc(-c3cc(C(F)(F)F)on3)sc2C)c(Cl)c1 observable="RP-LC retention time" measured=1220
compound=O=C(CCc1c(-c2ccc(Cl)cc2)nc2ccccn12)NCc1cccnc1 observable="RP-LC retention time" measured=570
compound=COc1ccc(S(=O)(=O)Nc2cccnc2Nc2ccc(O)cc2)cc1 observable="RP-LC retention time" measured=687
compound="Cc1ccc(-c2nc(C3CCN(C(=O)C4CC(=O)N(c5ccc(C)c(C)c5)C4)CC3)no2)cc1 (stereo unspecified)" observable="RP-LC retention time" measured=1070
compound=O=C(Cn1cnc2nc(N3CCCC3)ncc2c1=O)Nc1ccc(Cl)cc1C(F)(F)F observable="RP-LC retention time" measured=782
compound=CCNc1nc(Nc2cc(F)c(C(=O)N3CCOCC3)cc2OC)ncc1C(F)(F)F observable="RP-LC retention time" measured=915
compound=O=c1c2cnc3nc(-c4ccccc4Cl)nn3c2ccn1CCc1c[nH]c2ccc(F)cc12 observable="RP-LC retention time" measured=947
compound=Cc1nn(CC(=O)NCc2ccccn2)c(=O)c2nc(-c3ccccc3)sc12 observable="RP-LC retention time" measured=633
compound=CCc1nncn1C1CCN(S(=O)(=O)c2ccc(OC)c(OC)c2)CC1 observable="RP-LC retention time" measured=650
compound=Cc1noc(/C=C\c2ccc(S(=O)(=O)N3CCN(c4ncccn4)CC3)cc2)c1NC(=O)C1CC1 observable="RP-LC retention time" measured=849
compound="COCC(=O)NC1CCC12CCN(C(=O)c1cccs1)CC2 (stereo unspecified)" observable="RP-LC retention time" measured=669
compound=Cc1ccc2cc(CCC(=O)NCCN3CCCCC3)c(=O)[nH]c2c1 observable="RP-LC retention time" measured=601
compound=Cn1ccc2cc(C(=O)NC3CCCC3)ccc21 observable="RP-LC retention time" measured=806
compound=CCn1c(=O)n(CC)c2cc(S(=O)(=O)c3ccc(C)cc3)c(N)cc21 observable="RP-LC retention time" measured=760
compound=Cn1c(SCC(=O)Nc2ncccn2)nnc1-c1ccc2c(c1)OCO2 observable="RP-LC retention time" measured=579
compound="CN(CCNC(=O)c1ccc2c(c1)NC(=O)C1CCCCN21)C1CCCCC1 (stereo unspecified)" observable="RP-LC retention time" measured=630
compound=Cc1ccc(NC(=O)Cn2nc3n(c2=O)CCCC3)cc1F observable="RP-LC retention time" measured=677
compound="O=C(c1ccc(F)c(F)c1)N1CCN(C(=O)c2nnn3c2COC(c2ccccc2)C3)CC1 (stereo unspecified)" observable="RP-LC retention time" measured=876
compound="CCNC(=O)C1CCCN(c2nc3ncn(CC(=O)Nc4c(C)cc(C)cc4C)c(=O)c3s2)C1 (stereo unspecified)" observable="RP-LC retention time" measured=715
compound=CCCNC(=O)CN1C(=O)CC(c2ccc(Br)s2)=Nc2ccccc21 observable="RP-LC retention time" measured=913
compound=CCNc1ncnc2sc3c(c12)CCN(C(=O)CC)C3 observable="RP-LC retention time" measured=617
compound=COC(=O)c1nc(NC(=O)Cn2nc3c(cc2=O)CCCCC3)sc1C(C)C observable="RP-LC retention time" measured=864
